# EXPERIMENTAL_PROTOCOL: Dissociation constant, pKa of the compound
# Assay type: physicochemical
ASSAY_METRIC: pKa

Query: pKa; subject: CCOc1cc(-c2nncn2C)ccc1Nc1ncc2cc(C)nc(NCC(C)(C)C)c2n1 2.63 to 6.22

###

The listing below reports pIC50 for compounds tested on Dual specificity protein kinase TTK (Homo sapiens, UniProt P33981).
Sequence (P33981 whole entry): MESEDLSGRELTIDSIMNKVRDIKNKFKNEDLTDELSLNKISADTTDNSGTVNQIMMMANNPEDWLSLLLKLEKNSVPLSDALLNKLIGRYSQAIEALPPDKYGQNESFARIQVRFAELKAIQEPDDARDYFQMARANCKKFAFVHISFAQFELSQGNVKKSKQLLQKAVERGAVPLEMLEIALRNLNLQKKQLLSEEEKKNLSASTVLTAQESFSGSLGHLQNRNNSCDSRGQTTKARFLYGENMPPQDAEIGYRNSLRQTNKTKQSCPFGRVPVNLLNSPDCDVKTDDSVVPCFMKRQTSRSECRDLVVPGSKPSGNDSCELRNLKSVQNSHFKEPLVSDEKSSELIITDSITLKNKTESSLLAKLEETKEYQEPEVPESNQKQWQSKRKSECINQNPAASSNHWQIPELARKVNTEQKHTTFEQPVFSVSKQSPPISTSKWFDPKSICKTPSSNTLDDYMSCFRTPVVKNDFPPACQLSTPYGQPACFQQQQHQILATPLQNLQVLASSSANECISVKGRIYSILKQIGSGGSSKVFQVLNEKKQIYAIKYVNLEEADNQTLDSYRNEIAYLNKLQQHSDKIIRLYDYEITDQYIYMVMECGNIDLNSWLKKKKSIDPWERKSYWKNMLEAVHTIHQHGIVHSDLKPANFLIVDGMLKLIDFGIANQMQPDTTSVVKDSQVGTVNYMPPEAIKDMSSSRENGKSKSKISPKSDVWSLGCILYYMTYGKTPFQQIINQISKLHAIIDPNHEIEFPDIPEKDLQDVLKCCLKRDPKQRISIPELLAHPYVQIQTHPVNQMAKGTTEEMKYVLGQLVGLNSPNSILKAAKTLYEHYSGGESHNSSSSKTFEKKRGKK
One number for each entry, as −log10 of the molar value.

Worked examples, 4 compounds total:
CCOc1cc(-c2nncn2C)ccc1Nc1ncc2cc(C)nc(N[C@@H](C)C(C)(C)C)c2n1    8.33
CCOc1cc(-c2nncn2C)ccc1Nc1ncc2cc(C)nc(N3CC(C)(C#N)C3)c2n1    7.70
CCOc1cc(-c2nncn2C)ccc1Nc1ncc2cc(C)nc(N3CCCC3)c2n1    7.08
CCOc1cc(-c2nnc3n2CCC3)ccc1Nc1ncc2cc(C)nc(NCC(C)(C)C)c2n1    7.42

The record that follows has no pIC50 shown yet.
Quick one: pIC50 for COc1cc(-c2cnc(C)n2C)ccc1Nc1ncc2ccnc(NCC(C)(C)C)c2n1 ? 8.07

###

# Tested on: Rattus norvegicus
# EXPERIMENTAL_PROTOCOL: Oral bioavailability in rat at 5 mg/kg by ESI-LCMS/MS analysis
# Assay type: ADME, organism-based
# STUDY_CONDITIONS: in vivo
ASSAY_METRIC: F (%)
Answers are plain numbers, in %.

# annotated cases, reported F shown
CCOc1cc(-c2nncn2C)ccc1Nc1ncc2cc(C)nc(NCC(C)(C)C)c2n1    63
CCOc1cc(-c2nncn2C)ccc1Nc1ncc2cc(C)nc(N3CC4(CCOCC4)C3)c2n1    22
CCOc1cc(-c2nncn2C)ccc1Nc1ncc2cc(C)nc(N3CC(C)(C)C3)c2n1    72

Please examine the following record next.
Request the reported F associated with CCOc1cc(-c2nncn2C)ccc1Nc1ncc2cc(C)nc(N[C@@H](C)C(C)(C)C)c2n1 92

###

Assign logP to each entry below.
# EXPERIMENTAL_PROTOCOL: Lipophilicity, log P of the compound
# Format: physicochemical
# STUDY_CONDITIONS: octanol/water
Answers are plain numbers.

CCOc1cc(-c2nnc(C)n2C)ccc1Nc1ncc2cc(C)nc(NCC(C)(C)C)c2n1    4.49

Would you mind giving logP for every molecule in the list below?
1. CCOc1cc(-c2nncn2C)ccc1Nc1ncc2cc(C)nc(N3CCCC3)c2n1
2. COc1cc(-c2cnc(C)n2C)ccc1Nc1ncc2ccnc(NCC(C)(C)C)c2n1
3. CCOc1cc(-c2nncn2C)ccc1Nc1ncc2cc(C)nc(N3CC(C)(C#N)C3)c2n1

3.58
4.27
3.25

Look up logP for this molecule: COc1cc(-c2nnc3n2CCC3)ccc1Nc1ncc2cc(C)nc(NCC(C)(C)C)c2n1 4.4

###

For each entry below, report its CLH value.
# EXPERIMENTAL_PROTOCOL: Intrinsic clearance in CD1 mouse liver microsomes assessed per mg protein at 1 uM preincubated for 10 mins followed NADPH/UDP-glucuronic acid addition and measured after 30 mins by LC-MS/MS analysis
# Format: ADME, microsome
# STUDY_CONDITIONS: 0.5 h
Give bare numbers, in µL/min/mg.

CCOc1cc(-c2nncn2C)ccc1Nc1ncc2cc(C)nc(N3CC4(CCOCC4)C3)c2n1    32.9
COc1cc(-c2cnc(C)n2C)ccc1Nc1ncc2cc(C)nc(NCC(C)(C)C)c2n1    34.5
COc1cc(-c2cnc(C)n2C)ccc1Nc1ncc2ccnc(NCC(C)(C)C)c2n1    92.5
CCOc1cc(-c2nnc(C)n2C)ccc1Nc1ncc2cc(C)nc(NCC(C)(C)C)c2n1    32.9

# evaluate next
What value of measured CLH is listed for CCOc1cc(-c2nnc(CCN(C)C)n2C)ccc1Nc1ncc2cc(C)nc(NCC(C)(C)C)c2n1 ? 27.7

###

# EXPERIMENTAL_PROTOCOL: Intrinsic clearance in human liver microsomes assessed per mg protein at 1 uM preincubated for 10 mins followed NADPH/UDP-glucuronic acid addition and measured after 30 mins by LC-MS/MS analysis
# Format: ADME, microsome
# STUDY_CONDITIONS: 0.5 h
ASSAY_METRIC: CLH (µL/min/mg)
One number for each entry, in µL/min/mg.

Recorded results for 2 molecules are shown here.
CCOc1cc(-c2nnc3n2CCC3)ccc1Nc1ncc2cc(C)nc(NCC(C)(C)C)c2n1    18.6
CCOc1cc(-c2nncn2C)ccc1Nc1ncc2cc(C)nc(N3CC(C)(C)C3)c2n1    25.2

Reported CLH, molecule CCOc1cc(-c2nnc(C)n2C)ccc1Nc1ncc2cc(C)nc(NCC(C)(C)C)c2n1 : ____ 20.4
